# testTarget: human recombinant AChE (hAChE) (Homo sapiens)
# testMethodNotes: biochemical
# testParameters: substrate acetylthiocoline; mean ± SEM
property: Ki

Given the compound O=C1CN(/N=C/c2ccc(-c3ccc([N+](=O)[O-])cc3)o2)C(O)=N1 [Dantrolene] , write its reported Ki.
6.3 µM

---

# testTarget: recombinant wild-type (WT) CAC (Rattus norvegicus, UniProt P97521)
# Sequence (P97521 whole entry): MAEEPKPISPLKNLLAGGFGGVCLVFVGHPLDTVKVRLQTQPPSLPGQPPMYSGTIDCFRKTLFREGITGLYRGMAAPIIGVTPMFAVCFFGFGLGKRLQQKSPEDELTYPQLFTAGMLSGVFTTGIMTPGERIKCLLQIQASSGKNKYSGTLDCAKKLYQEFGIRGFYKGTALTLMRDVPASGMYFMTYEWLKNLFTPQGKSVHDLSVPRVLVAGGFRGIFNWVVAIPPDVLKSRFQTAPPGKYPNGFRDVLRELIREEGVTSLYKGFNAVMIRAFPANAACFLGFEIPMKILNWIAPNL
# testMethodNotes: Transport activity of purified recombinant WT CAC reconstituted into liposomes
# testParameters: after 30 min of incubation; read-out: EC50 of activation of recombinant WT CAC
property: pEC50
Give bare numbers, as −log10 of the molar value.

Given the compound `O=C1CN(/N=C/c2ccc(-c3ccc([N+](=O)[O-])cc3)o2)C(O)=N1` , write its reported pEC50.
5.03

---

# testTarget: human recombinant AChE (hAChE) (Homo sapiens, UniProt P22303)
# Sequence (P22303 32-614): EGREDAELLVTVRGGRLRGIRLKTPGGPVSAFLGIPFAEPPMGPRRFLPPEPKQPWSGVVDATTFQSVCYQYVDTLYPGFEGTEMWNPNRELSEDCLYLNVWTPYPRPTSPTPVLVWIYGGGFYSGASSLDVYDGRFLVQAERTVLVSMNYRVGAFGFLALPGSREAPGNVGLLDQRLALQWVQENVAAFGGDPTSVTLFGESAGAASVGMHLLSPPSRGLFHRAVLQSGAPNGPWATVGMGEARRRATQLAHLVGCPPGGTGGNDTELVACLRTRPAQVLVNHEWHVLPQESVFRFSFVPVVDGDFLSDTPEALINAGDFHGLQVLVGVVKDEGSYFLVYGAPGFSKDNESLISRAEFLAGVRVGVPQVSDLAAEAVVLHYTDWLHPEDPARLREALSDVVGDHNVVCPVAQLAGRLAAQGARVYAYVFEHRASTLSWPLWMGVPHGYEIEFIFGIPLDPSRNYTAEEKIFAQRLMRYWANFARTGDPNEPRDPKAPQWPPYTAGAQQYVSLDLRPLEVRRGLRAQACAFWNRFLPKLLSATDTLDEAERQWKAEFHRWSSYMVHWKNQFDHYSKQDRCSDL
# testMethodNotes: biochemical
property: IC50

Provide measured IC50 on human recombinant AChE (hAChE) (Homo sapiens, UniProt P22303) for `O=C1CN(/N=C/c2ccc(-c3ccc([N+](=O)[O-])cc3)o2)C(O)=N1` please.
4.19 µM

---

# testMethodNotes: physchem
# testParameters: pH 7.4
property: recovery at 60 h, 20 μM (%)
Give bare numbers, in %.

Given the compound `O=C1CN(/N=C/c2ccc(-c3ccc([N+](=O)[O-])cc3)o2)C(O)=N1` , write its reported recovery at 60 h, 20 μM.
92

---

# testTarget: human MAO B (hMAO B) (Homo sapiens, UniProt P27338)
# Sequence (P27338 whole entry): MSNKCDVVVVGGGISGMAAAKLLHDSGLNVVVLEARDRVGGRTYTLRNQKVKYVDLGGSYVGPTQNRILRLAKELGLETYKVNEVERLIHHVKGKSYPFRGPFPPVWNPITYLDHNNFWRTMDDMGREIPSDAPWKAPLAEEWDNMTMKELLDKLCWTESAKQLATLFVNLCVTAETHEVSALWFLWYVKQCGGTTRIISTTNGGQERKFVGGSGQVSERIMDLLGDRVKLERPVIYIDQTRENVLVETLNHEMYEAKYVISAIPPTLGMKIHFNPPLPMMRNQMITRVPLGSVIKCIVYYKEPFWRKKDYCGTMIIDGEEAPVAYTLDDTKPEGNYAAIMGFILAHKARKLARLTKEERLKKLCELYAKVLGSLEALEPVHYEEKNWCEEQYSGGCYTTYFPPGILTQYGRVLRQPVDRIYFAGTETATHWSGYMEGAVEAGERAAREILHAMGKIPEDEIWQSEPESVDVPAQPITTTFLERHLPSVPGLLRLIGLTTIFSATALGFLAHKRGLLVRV
property: pIC50
One number for each entry, as −log10 of the molar value.

Given the compound `O=C1CN(/N=C/c2ccc(-c3ccc([N+](=O)[O-])cc3)o2)C(O)=N1` , write its reported pIC50.
5.57

---

# testTarget: human MAO B (hMAO B) (Homo sapiens, UniProt P27338)
# Construct: purchased Sigma-Aldrich Europe (Milan, Italy); host or cells: baculovirus infected insect cells (microsomes)
# testMethodNotes: biochemical
# testParameters: substrate kynuramine; mean ± SEM
property: pKi
Answers are plain numbers, as −log10 of the molar value.

Provide measured pKi on human MAO B (hMAO B) (Homo sapiens, UniProt P27338) for `O=C1CN(/N=C/c2ccc(-c3ccc([N+](=O)[O-])cc3)o2)C(O)=N1` please.
6.02

---

# testTarget: hMAO A (Homo sapiens)
# Sequence (P21397 1-527): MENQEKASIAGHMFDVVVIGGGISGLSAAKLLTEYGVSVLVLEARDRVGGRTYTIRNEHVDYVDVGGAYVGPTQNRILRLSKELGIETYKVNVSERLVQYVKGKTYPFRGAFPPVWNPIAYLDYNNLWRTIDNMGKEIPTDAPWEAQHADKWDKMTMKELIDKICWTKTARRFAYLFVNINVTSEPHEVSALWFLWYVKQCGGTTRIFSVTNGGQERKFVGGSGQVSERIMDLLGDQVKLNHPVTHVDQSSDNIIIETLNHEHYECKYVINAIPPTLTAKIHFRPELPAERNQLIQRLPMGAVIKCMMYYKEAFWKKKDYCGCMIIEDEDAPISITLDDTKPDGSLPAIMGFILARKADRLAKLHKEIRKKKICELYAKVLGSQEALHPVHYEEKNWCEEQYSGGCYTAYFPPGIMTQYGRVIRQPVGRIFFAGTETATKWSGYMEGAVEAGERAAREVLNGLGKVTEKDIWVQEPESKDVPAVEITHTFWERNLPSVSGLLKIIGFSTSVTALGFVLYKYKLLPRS
property: pIC50
Numbers only, as −log10 of the molar value.

Given the molecule `O=C1CN(/N=C/c2ccc(-c3ccc([N+](=O)[O-])cc3)o2)C(O)=N1` , write its reported pIC50.
4.85
